- Tested on: HepG2-A16-CD81EGFP cells
- test-conditions: nominal 3 uM (10 mM stock); 4.5 uM for 15 mM, 3.6 uM for 12 mM, 6 uM for 20 mM stock; average of 2 wells; repeat 2
quantity-measured: HepG2 viability signal, 3 uM, repeat 2

Some compounds with known HepG2 viability signal, 3 uM, repeat 2 results, for comparison:
# compound, target-or-system, readout-value
records = [
    ("O=C(Nc1ccc2c(N3CCOCC3)ncnc2c1)c1ccc(Br)o1", "HepG2-A16-CD81EGFP cells", "102.12%"),
    ("CCc1ccc(C2Sc3ccccc3N=C3C2=C(O)c2ccccc23)cc1 (stereo not shown)", "HepG2-A16-CD81EGFP cells", "104.74%"),
    ("COc1ccc(-c2noc(-c3cccn3CC(=O)Nc3ccc(C)cc3Cl)n2)cc1F", "HepG2-A16-CD81EGFP cells", "103.68%"),
]

Attention now turns to another entry.
Query: Consider the compound shown here: CCOC(=O)c1c(S(=O)(=O)N2CCCC(C(=O)N3CCN(c4cccc(C)c4C)CC3)C2)c(C)n(C)c1C (stereo not shown) What is its recorded HepG2 viability signal, 3 uM, repeat 2?
Reply: 102.57%

Recorded values, source paper PMC7822874.
